For each entry below, report its drug sensitivity score value.
system: BT-474 Tam1; experiment: drug sensitivity score (DSS) (DSS (dimensionless)); higher = more sensitive; extreme values may be limits of the assay; conditions: 4-OH-tamoxifen in medium 1 µM; 72 h
Answers are plain numbers.

CN(C)CCN1C(=O)c2cccc3cc(N)cc(c23)C1=O [Amonafide] ... 0

For each of the molecules below, state drug sensitivity score.
1. Nc1ccn([C@@H]2O[C@H](CO)[C@@H](O)[C@@H]2O)c(=O)n1
2. Oc1nc(-c2ccc(C(F)(F)F)cc2)nc2c1CSCC2

Reply |
1. 0
2. 0

For each of the molecules below, state drug sensitivity score.
1. CS(=O)(=O)OCCCCOS(C)(=O)=O
2. Nc1nc(F)nc2c1ncn2[C@@H]1O[C@H](CO)[C@@H](O)[C@@H]1O
3. COc1c2occc2cc2ccc(=O)oc12
4. CC(C)C[C@@H](C(=O)N[C@H](C(=O)OC1CCCC1)c1ccccc1)[C@H](O)C(=O)NO
5. CCN1CCN(c2ccc(Nc3cc(N(C)C(=O)Nc4c(Cl)c(OC)cc(OC)c4Cl)ncn3)cc2)CC1
6. COc1cc2nccc(Oc3ccc(NC(=O)C4(C(=O)Nc5ccc(F)cc5)CC4)cc3)c2cc1OC [Cabozantinib (XL184)]

Reply |
[0, 0, 0, 3.46, 6.97, 0.113]

---

For each entry below, report its relative IC50 value.
test system: BT-474 Tam2; experiment: relative IC50 (midpoint of fitted logistic curve, plateau may be below 50% inhibition; CellTiter-Glo viability); higher = less potent; settings: 4-OH-tamoxifen in medium 1 µM; 72 h
Structures can show the parent of a compound that is named as a salt.

Sample records with relative IC50:
O=C1CN2Cc3c(ccc(Cl)c3Cl)N=C2N1 [Anagrelide] ... > 10000 nM
COCC1(CO)C(=O)C2CCN1CC2 (stereo unspecified) [Prima-1 Met] ... > 10000 nM

For each of the compounds below, state relative IC50.
1. Cc1ccc([N+](=O)[O-])cc1S(=O)(=O)N(C)/N=C/c1cnc2ccc(Br)cn12 [PIK-75 (HCl)]
2. Oc1ncc(N(CCCl)CCCl)c(O)n1 [Uracil mustard]

Reply |
58.7 nM
> 10000 nM

For each of the compounds below, state relative IC50.
1. COc1cccc2c1C(=O)c1c(O)c3c(c(O)c1C2=O)C[C@@](O)(C(C)=O)C[C@@H]3O[C@H]1C[C@H](N)[C@H](O)[C@H](C)O1 [Daunorubicin]
2. CN1CC[C@H](c2c(O)cc(O)c3c(=O)cc(-c4ccccc4Cl)oc23)[C@H](O)C1 [Alvocidib (Flavopiridol)]
3. O=C(NC[C@H](O)CO)c1ccncc1Nc1ccc(I)cc1F

Reply |
1. 393 nM
2. 363 nM
3. > 10000 nM

---

For each entry below, report its viability inhibition at highest dose value.
tested on: MCF-7; experiment: viability inhibition at highest dose (% inhibition); higher = more growth inhibition; settings: 4-OH-tamoxifen in medium 1 µM; 72 h
One number for each entry.

Cn1cc(C2=C(c3cn(C4CCN(Cc5ccccn5)CC4)c4ccccc34)C(=O)NC2=O)c2ccccc21 [Enzastaurin] (drug 10000 nM) ... -13.8
Nc1ncn([C@H]2C[C@H](O)[C@@H](CO)O2)c(=O)n1 [Decitabine (Dacogen)] (drug 10000 nM) ... 2.36

For each of the compounds below, state viability inhibition at highest dose.
1. C[C@]1(O)C[C@@H](c2nc(-c3ccc4ccc(-c5ccccc5)nc4c3)c3c(N)nccn32)C1 [Linsitinib (OSI-906)] (drug 10000 nM)
2. NC1(c2ccc(-c3nc4ccn5c(=O)[nH]nc5c4cc3-c3ccccc3)cc2)CCC1 [MK-2206] (drug 1000 nM)
3. Cn1cnc2c(F)c(Nc3ccc(Br)cc3F)c(C(=O)NOCCO)cc21 [MEK-162 (ARRY-162)] (drug 1000 nM)
4. C[C@@H](Oc1cc(-c2cnn(C3CCNCC3)c2)cnc1N)c1c(Cl)ccc(F)c1Cl [Crizotinib] (drug 1000 nM)

Reply |
1: 62.4; 2: 44.8; 3: 20.8; 4: 6.55

Ask | Can you look up the measured viability inhibition at highest dose of CC(C)n1cnc2c(NCCc3ccc(O)cc3)nc(-c3csc4ccccc34)nc21 [StemRegenin 1] (drug 10000 nM) for me?
Reply | 65.3

---

For each entry below, report its relative IC50 value.
system: MCF-7; test: relative IC50 (midpoint of fitted logistic curve, plateau may be below 50% inhibition; CellTiter-Glo viability); higher = less potent; details: 4-OH-tamoxifen in medium 1 µM; 72 h

CC(C)(C)c1cnc(CSc2cnc(NC(=O)C3CCNCC3)s2)o1 ... 134 nM

For each of the compounds below, state relative IC50.
1. N#Cc1ccc(C(c2ccc(C#N)cc2)n2cncn2)cc1
2. COc1ncc(-c2ccc3nccc(-c4ccnnc4)c3c2)cc1NS(=O)(=O)c1ccc(F)cc1F
3. C[C@]12CC[C@@H]3c4ccc(OC(=O)N(CCCl)CCCl)cc4CC[C@H]3[C@@H]1CC[C@@H]2O
4. COC1=CC(c2cc3ccccc3[nH]2)=N/C1=C\c1[nH]c(C)cc1C
5. CC(=O)Nc1ccc(C(=O)Nc2ccccc2N)cc1
6. Cc1nc(Nc2ncc(C(=O)Nc3c(C)cccc3Cl)s2)cc(N2CCN(CCO)CC2)n1
7. O=c1[nH]cc(F)c(=O)[nH]1
8. Cc1cc2c(F)c(Oc3ncnn4cc(OC[C@@H](C)O)c(C)c34)ccc2[nH]1

Reply |
1. > 10000 nM
2. 8.41 nM
3. > 990000 nM
4. 1100 nM
5. > 1000 nM
6. > 1000 nM
7. > 10000 nM
8. > 1000 nM

For each of the compounds below, state relative IC50.
1. Nc1ncn([C@@H]2O[C@H](CO)[C@@H](O)[C@H]2O)c(=O)n1
2. CCN1CCN(c2ccc(Nc3cc(N(C)C(=O)Nc4c(Cl)c(OC)cc(OC)c4Cl)ncn3)cc2)CC1
3. NC1(c2ccc(-c3nc4ccn5c(=O)[nH]nc5c4cc3-c3ccccc3)cc2)CCC1
4. CC1=C2C[C@H]3[C@@H](CC=C4C[C@@H](O)CC[C@@]43C)[C@@H]2CC[C@]12O[C@@H]1C[C@H](C)CN[C@H]1[C@H]2C

Reply |
["> 10000 nM", "> 1000 nM", "119 nM", "> 10000 nM"]

For each of the compounds below, state relative IC50.
1. CC(C)C[C@H](NC(=O)[C@@H](COC(C)(C)C)NC(=O)[C@H](Cc1ccc(O)cc1)NC(=O)[C@H](CO)NC(=O)[C@H](Cc1c[nH]c2ccccc12)NC(=O)[C@H](Cc1cnc[nH]1)NC(=O)[C@@H]1CCC(=O)N1)C(=O)N[C@@H](CCCNC(=N)N)C(=O)N1CCC[C@H]1C(=O)NNC(N)=O [Goserelin acetate]
2. CO[C@@H](C(=O)N1Cc2[nH]nc(NC(=O)c3ccc(N4CCN(C)CC4)cc3)c2C1)c1ccccc1

Reply |
1. > 10000 nM
2. > 10000 nM

---

system: ZR-75-1 Tam2; test: drug sensitivity score (DSS) (DSS (dimensionless)); higher = more sensitive; extreme values may be limits of the assay; conditions: 4-OH-tamoxifen in medium 1 µM; 72 h
VALUE TYPE: drug sensitivity score
Give bare numbers.

CC[C@]1(O)C[C@@H]2CN(CCc3c([nH]c4ccccc34)[C@@](C(=O)OC)(c3cc4c(cc3OC)N(C)[C@H]3[C@@](O)(C(=O)OC)[C@H](OC(C)=O)[C@]5(CC)C=CCN6CC[C@]43[C@@H]65)C2)C1 ... 3.58
Nc1ncn([C@H]2C[C@H](O)[C@@H](CO)O2)c(=O)n1 ... 0

Ask | Can you look up the measured drug sensitivity score of N[C@@H](CSC(c1ccccc1)(c1ccccc1)c1ccccc1)C(=O)O for me?
Reply | 0.627

---

tested on: ZR-75-1; test: drug sensitivity score (DSS) (DSS (dimensionless)); higher = more sensitive; extreme values may be limits of the assay; conditions: 4-OH-tamoxifen in medium 0 µM; 72 h
VALUE TYPE: drug sensitivity score
Give bare numbers.

Sample records with drug sensitivity score:
COc1cc(F)c(F)c(Nc2ccc(I)cc2F)c1NS(=O)(=O)C1(C[C@H](O)CO)CC1 [Refametinib (RDEA119)] ... 0.912
N[C@@H](CSC(c1ccccc1)(c1ccccc1)c1ccccc1)C(=O)O ... 1.65
CN1CCN(CCOc2cc(OC3CCOCC3)c3c(Nc4c(Cl)ccc5c4OCO5)ncnc3c2)CC1 ... 0
Cc1cn(-c2cc(NC(=O)c3ccc(C)c(Nc4nccc(-c5cccnc5)n4)c3)cc(C(F)(F)F)c2)cn1 ... 0
CN[C@@H]1C[C@H]2O[C@@](C)([C@@H]1OC)n1c3ccccc3c3c4c(c5c6ccccc6n2c5c31)C(=O)N[C@H]4O ... 9.37
Clc1ccc(C(c2ccccc2Cl)C(Cl)Cl)cc1 (centres undefined) ... 0
CCN1CCN(c2ccc(Nc3cc(N(C)C(=O)Nc4c(Cl)c(OC)cc(OC)c4Cl)ncn3)cc2)CC1 ... 0
CS(=O)(=O)N1CCN(Cc2cc3nc(-c4cccc5[nH]ncc45)nc(N4CCOCC4)c3s2)CC1 ... 12.7

Now take the following molecule into account.
Ask | Can you look up the measured drug sensitivity score of COc1cc(Nc2c(C#N)cnc3cc(OCCCN4CCN(C)CC4)c(OC)cc23)c(Cl)cc1Cl for me?
Reply | 0.173
